Assayed system: CD117 on Kasumi-1 cells and primary human CD34+ bone marrow cells (human, UniProt P10721 26-976)
Sequence (P10721 26-976): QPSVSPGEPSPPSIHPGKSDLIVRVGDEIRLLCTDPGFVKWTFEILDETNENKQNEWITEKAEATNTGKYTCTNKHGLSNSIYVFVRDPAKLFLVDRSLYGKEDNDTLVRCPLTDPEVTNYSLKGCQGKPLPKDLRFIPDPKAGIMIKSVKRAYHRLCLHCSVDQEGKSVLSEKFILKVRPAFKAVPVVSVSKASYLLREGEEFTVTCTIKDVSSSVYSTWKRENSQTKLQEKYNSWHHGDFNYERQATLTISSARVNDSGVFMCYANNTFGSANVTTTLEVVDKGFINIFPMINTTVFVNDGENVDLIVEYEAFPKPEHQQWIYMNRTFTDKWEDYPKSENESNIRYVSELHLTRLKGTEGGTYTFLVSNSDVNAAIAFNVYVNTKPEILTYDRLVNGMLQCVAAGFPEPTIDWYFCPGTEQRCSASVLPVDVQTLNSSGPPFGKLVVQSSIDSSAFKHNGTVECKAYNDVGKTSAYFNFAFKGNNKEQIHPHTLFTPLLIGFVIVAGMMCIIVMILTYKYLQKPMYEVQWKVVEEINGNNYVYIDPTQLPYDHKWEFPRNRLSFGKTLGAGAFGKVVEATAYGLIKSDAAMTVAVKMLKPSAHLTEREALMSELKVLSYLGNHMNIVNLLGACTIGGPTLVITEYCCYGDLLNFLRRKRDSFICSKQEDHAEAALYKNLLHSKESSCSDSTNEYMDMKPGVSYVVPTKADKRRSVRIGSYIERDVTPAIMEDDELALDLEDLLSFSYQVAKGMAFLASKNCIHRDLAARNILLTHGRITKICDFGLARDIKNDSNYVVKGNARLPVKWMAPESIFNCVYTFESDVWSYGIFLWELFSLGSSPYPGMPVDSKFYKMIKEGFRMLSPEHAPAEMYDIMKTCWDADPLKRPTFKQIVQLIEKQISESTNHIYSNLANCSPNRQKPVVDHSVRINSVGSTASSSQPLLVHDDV
Test details: cell-based or functional assay
Measure: IC50, killing of primary human CD34+CD90+ cells (5 days, flow cytometry counts) (pM)
Give the value in pM but do not write pM after it.

Incoming: // lookup IC50, killing of primary human CD34+CD90+ cells (5 days, flow cytometry counts) for HC-247/LC-247 anti-CD117-ADC (conjugated to an amatoxin) (antibody, V domains shown, antibody conjugated to an amatoxin; site not stated) VH: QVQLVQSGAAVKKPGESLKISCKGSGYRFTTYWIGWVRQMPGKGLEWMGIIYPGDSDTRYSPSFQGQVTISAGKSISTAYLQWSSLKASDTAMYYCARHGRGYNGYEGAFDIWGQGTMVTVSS VL: DIQMTQSPSSLSASVGDRVTITCRASRGISDYLAWYQQKPGKAPKLLIYDASNLETGVPSRFSGSGSGTDFTLTISSLQPEDFATYYCQQANSFPITFGQGTRLEIK
Outgoing: 8.37
